Molecular target: T1, TPP-2305, hTNFRSF12 amino acids 28-80 (extracellular domain of TWEAKR) (human, UniProt Q9NP84 28-80)
T1 construct: Bought recombinant antigen (Fitzgerald 30R-AT080); also called TWEAKR extracellular domain; 30R-AT080 (Fitzgerald)
T1 sequence: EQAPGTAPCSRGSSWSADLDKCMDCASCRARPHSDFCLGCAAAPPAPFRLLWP
Experiment: SPR (Biacore T200), antibody captured by anti-human Fc on CM5, TWEAKR extracellular domain 3.9-500 nM as analyte, 25 C; monovalent KD
Entries whose Kd is below 700 pM take 1.0; entries at or above 700 pM take 0.0.

- Binder: "TPP-7005 (antibody, human IgG1, kappa, V domains shown, also called anti-TWEAKR AK1B; AK1B) VH: QVQLVQSGAEVKKPGASVKISCKVSGYTFTDFIIAWVKQAPGKGLEWIGEIYPGTGRTYYSEKFRGKATLTADKSTSTAYMELSSLRSEDTAVYYCARRTIYYDYDGDYWGQGTTVTVSS VL: DIVMTQSPLSLPVTPGEPASISCRSSKSLLHSNGITYLYWYLQKPGQSPQLLIYQMSNLASGVPDRFSSSGSGTDFTLKISRVEAEDVGVYYCAHNLELPWTFGGGTKVEIKR"
  Assigned label: 1.0
- Binder: "TPP-7007 (antibody, human IgG1, kappa, V domains shown, also called anti-TWEAKR AK1D; AK1D) VH: QVQLVQSGAEVKKPGASVKVSCKASGYTFTDFIIAWVKQAPGQGLEWIGEIYPGTGRTYYSEKFRGKATLTADTSTSTAYMELSSLRSEDTAVYFCARRTIYYDYDGDYWGQGTLVTVSS VL: DIVMTQSPLSLPVTPGEPASISCRSSKSLLHSNGITYLYWYLQKPGQSPQLLIYQMSNLASGVPDRFSGSGSGTDFTLKISRVEAEDVGVYYCAHNLELPWTFGQGTKVEIKR"
  Assigned label: 0.0
- Binder: "TPP-7075 (antibody, human IgG1, kappa, V domains shown) VH: QVQLVQSGAEVKKPGASVKVSCKASGYTFTDFIIAWVKQAPGQGLEWIGEIYPGTGRTYYSEKFRGKATLTADTSTSTAYMELSSLRSEDTAVYFCARRTIYYDYDGDYWGQGTLVTVSS VL: DIVMTQSPLSLPVTPGEPASISCRSSKSLLHSSGITYLYWYLQKPGQSPQLLIYQMSNLASGVPDRFSGSGSGTDFTLKISRVEAEDVGVYYCAHNLELPWTFGQGTKVEIKR"
  Assigned label: 0.0
- Binder: "TPP-7006 (antibody, human IgG1, kappa, V domains shown, also called anti-TWEAKR AK1C; AK1C) VH: QVQLQQSGPELVKPGASVKMSCKASGYTFTDFIIAWVKQRTGQGLEWIGEIYPGTGRTYYSEKFRGKATLTADKSSNTAYMQLSSLTSVDSAVYFCARRTIYYDYDGDYWGQGTTLTVSS VL: DIVMTQAAFSNPVTLGTSASISCRSSKSLLHSNGITYLYWYLQKPGQSPQLLIYQMSNLASGVPDRFSSSGSGTDFTLRISRVEAEDVGVYYCAHNLELPWTFGGGTKLELKR"
  Assigned label: 1.0
